tested on: U-2932; test: growth inhibition by drug alone (1 - RLU/untreated control) (fraction); higher = stronger inhibition; details: 1000 nM; time (day): 4; 177Lu-lilotomab satetraxetan 0 ug/ml
Structures can show the parent of a compound that is named as a salt.
Record 1 whenever growth inhibition by drug alone is at -0.007 or higher; record 0 when lower.

Challenge: Check the entry CCOC(=O)[C@@H](C)Oc1cccc2c(=O)n(CC(=O)Nc3ccc4c(c3)OCCO4)ccc12 : does growth inhibition by drug alone equal or exceed -0.007?
Response given: 0

Challenge: Item O=C1c2c(O)ccc(O)c2C(=O)c2c(NCCNCCO)ccc(NCCNCCO)c21 [Mitoxantrone Hydrochloride] with growth inhibition by drug alone of -0.007 or above?
Response given: 1

Challenge: Does the compound CN(C)c1ccccc1CN1CCCN(Cc2ccccc2N(C)C)C1c1ccncc1 have recorded growth inhibition by drug alone that is -0.007 or more?
Response given: 1

Challenge: Does CC(C)c1onc(-c2c(Cl)cccc2Cl)c1COc1ccc(/C=C/c2cccc(C(=O)O)c2)c(Cl)c1 have a reported growth inhibition by drug alone of at least -0.007?
Response given: 1

Challenge: Reported growth inhibition by drug alone reaches at least -0.007 for C[C@]12CC[C@@H]3c4ccc(O)cc4C[C@@H](CCCCCCCCC[S+]([O-])CCCC(F)(F)C(F)(F)F)[C@H]3[C@@H]1CC[C@@H]2O (some centres undefined) ?
Response given: 0

Challenge: Would you say CC(=O)O[C@]1(C(C)=O)CC[C@H]2[C@@H]3C[C@H](C)C4=CC(=O)CC[C@]4(C)[C@H]3CC[C@@]21C [Medroxyprogesterone acetate] shows growth inhibition by drug alone at minimum -0.007?
Response given: 1

Challenge: In plain terms: is recorded growth inhibition by drug alone at least -0.007 for CO[C@H]1/C=C\C=C(/C)C(=O)NC2=CC(=O)C(NCCN(C)C)=C(C[C@@H](C)C[C@H](OC)[C@H](O)[C@@H](C)/C=C(\C)[C@@H]1OC(N)=O)C2=O [17-DMAG HCl (Alvespimycin)] ?
Response given: 1

Challenge: Threshold query (growth inhibition by drug alone >= -0.007) on COc1cc2c(N3CCN(C(=O)Nc4ccc(OC(C)C)cc4)CC3)ncnc2cc1OCCCN1CCCCC1 [Tandutinib (MLN518)]
Response given: 0
